pKd values by entry
Target: T1, murine IL-11 (mouse, UniProt P47873 22-199)
T1 construct: bought from Invigate; also called mIL-11; mIL11
T1 sequence: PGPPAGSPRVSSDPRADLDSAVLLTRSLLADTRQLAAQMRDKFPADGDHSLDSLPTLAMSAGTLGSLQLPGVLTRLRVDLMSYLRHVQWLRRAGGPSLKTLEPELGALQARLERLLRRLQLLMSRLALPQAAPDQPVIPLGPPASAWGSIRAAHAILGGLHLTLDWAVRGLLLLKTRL
Assay: SPR, IgG captured via anti-human Fc, IL-11 as analyte
// scale note: pKd = -log10(conc_M); give the bare number

A selection of reference data follows.
binder	readout value
TPP-31312 (antibody, IgG4, V domains shown, also called WT antibody; chimeric antibody) VH: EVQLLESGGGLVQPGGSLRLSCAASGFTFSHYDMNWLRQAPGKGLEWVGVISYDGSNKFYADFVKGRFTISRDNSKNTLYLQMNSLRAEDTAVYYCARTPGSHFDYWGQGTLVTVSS VL: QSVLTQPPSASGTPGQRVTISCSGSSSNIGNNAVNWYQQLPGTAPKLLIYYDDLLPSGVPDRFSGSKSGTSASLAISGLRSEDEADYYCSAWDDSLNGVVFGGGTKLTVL	8.03
TPP-31324 (antibody, IgG4, V domains shown, hIgG4 SPLE, lambda; FB - 1, back mutation VL-R55L) VH: QVQLVESGGGVVQPGRSLRLSCAASGFTFSHYDMHWVRQAPGKGLEWVAVISYEGSNKFYADSVKGRFTISRDNSKNTLYLQMNSLRAEDTAVYYCARTPGSHFDYWGQGTLVTVSS VL: QSVLTQPPSASGTPGQRVTISCSGSSSNIGSNYVNWYQQLPGTAPKLLIYYDDLLPSGVPDRFSGSKSGTSASLAISGLRSEDEADYYCAAWDDSLSGVVFGGGTKLTVL	9.30
TPP-31325 (antibody, human IgG4 S228P, lambda, V domains shown, hIgG4-SPLE, Lambda; also called final germline; FB with a back-mutation VL-A90S) VH: QVQLVESGGGVVQPGRSLRLSCAASGFTFSHYDMHWVRQAPGKGLEWVAVISYEGSNKFYADSVKGRFTISRDNSKNTLYLQMNSLRAEDTAVYYCARTPGSHFDYWGQGTLVTVSS VL: QSVLTQPPSASGTPGQRVTISCSGSSSNIGSNYVNWYQQLPGTAPKLLIYYDDLRPSGVPDRFSGSKSGTSASLAISGLRSEDEADYYCSAWDDSLSGVVFGGGTKLTVLG	9.46

Alright, here's another binder for you.
Field request: pKd | item: TPP-31322 (antibody, IgG4, V domains shown, hIgG4 SPLE, lambda; FB - 1, back mutation VL-S31N) VH: QVQLVESGGGVVQPGRSLRLSCAASGFTFSHYDMHWVRQAPGKGLEWVAVISYEGSNKFYADSVKGRFTISRDNSKNTLYLQMNSLRAEDTAVYYCARTPGSHFDYWGQGTLVTVSS VL: QSVLTQPPSASGTPGQRVTISCSGSSSNIGNNYVNWYQQLPGTAPKLLIYYDDLRPSGVPDRFSGSKSGTSASLAISGLRSEDEADYYCAAWDDSLSGVVFGGGTKLTVL
9.16
